Reported A/B (index thérapeutique lié à la toxicité aiguë) by item:
# System: prise de nourriture chez le rat
# assayText: Anorectic activity, food intake method in the rat
# Format: in vivo
# conditionContext: os; DL50/DE50

Look up A/B (index thérapeutique lié à la toxicité aiguë) for this compound: CCNC(C)Cc1cccc(C(F)(F)F)c1 (centres unmarked) [fenfluramine, reference compound] 25,1

Same again, this time with `FC(F)(F)c1cccc(C2=CCNCC2)c1` 22

Same again, this time with `CCCCCN1CC=C(c2cccc(C(F)(F)F)c2)CC1` 35,4

Same again, this time with `CCCN1CC=C(c2cccc(C(F)(F)F)c2)CC1` 22,2

Same again, this time with `FC(F)(F)c1cccc(C2=CCN(Cc3ccccc3)CC2)c1` 33,3
